Where these numbers come from: paper PMC12431657

Test system: HCoV-229E
Set-up: species or system Huh-7; HTS, protection from HCoV-229E induced cell death, luminescent cell viability (CellCounting-Lite 2.0), inhibition rate
run_parameters: 24 h post infection, 1 h compound pre-incubation; 10 µM; inhibitor
Out of some 3,300 compounds screened, about 95 (3%) showed an effect of 50% or more. Only a selection was taken, and strong results are over-represented in it overall.
endpoint: 229E Inhibition rate (%)
Report the value in % with no unit label.

Example cases with answers are listed next.
| compound | experimental_system | measure_unit | 229E Inhibition rate |
| --- | --- | --- | --- |
| C/C=C(/C)C(=O)O[C@@H]1[C@H](OC(=O)CC(C)C)c2c(ccc3ccc(=O)oc23)OC1(C)C | HCoV-229E | % | 32.9 |
| O=C(O)CCCC(O)C(=O)O (stereo not drawn) [2-Hydroxyadipic acid] | HCoV-229E | % | 14.9 |
| C[C@H](CC[C@@H](O)C(C)(C)O)[C@H]1CC[C@@]2(C)[C@@H]3CC=C4[C@@H](CC[C@H](O[C@@H]5O[C@H](CO[C@@H]6O[C@H](CO)[C@@H](O)[C@H](O)[C@H]6O)[C@@H](O)[C@H](O)[C@H]5O)C4(C)C)[C@]3(C)[C@H](O)C[C@]12C [Mogroside II-A2] | HCoV-229E | % | 10 |

For the compound shown here, `C/C=C(/C)C(=O)O[C@@H]1c2c(ccc3ccc(=O)oc23)OC(C)(C)[C@@H]1OC(C)=O` , give the reported 229E Inhibition rate.
4.8

Next up: `CC(C)=CC[C@]12Oc3cc(O)c([C@H]4C=C(C)C[C@H](c5ccc(O)cc5O)[C@H]4C(=O)c4ccc(O)cc4O)c(O)c3C(=O)[C@@]1(O)Oc1cc(O)ccc12`
43.3

Then what about the compound `C/C=C(/C)C(=O)O[C@H]1[C@@H](OC(C)=O)c2c(ccc3ccc(=O)oc23)OC1(C)C` ?
19.1

====

In this section, each of the molecules is paired with its reported 229E Inhibition rate.
Test system: HCoV-229E
Parameters: species or system Huh-7; HTS, protection from HCoV-229E induced cell death, luminescent cell viability (CellCounting-Lite 2.0), inhibition rate
run_parameters: 24 h post infection, 1 h compound pre-incubation; 10 µM; inhibitor
Screen size: about 3,300 compounds; about 95 (3%) showed an effect of 50% or more. Shown is part of a subset that was picked to be rich in strong results.
Answer format: numeric, % implied, no suffix.

| molecule | measure_unit | 229E Inhibition rate |
| --- | --- | --- |
| CC(=O)O[C@@]12CO[C@@H]1C[C@@H](O)[C@@]1(C)C(=O)[C@H](O)C3=C(C)[C@@H](OC(=O)[C@H](O)[C@@H](NC(=O)c4ccccc4)c4ccccc4)C[C@@](O)([C@@H](OC(=O)c4ccccc4)[C@H]21)C3(C)C [7-Epi 10-desacetyl paclitaxel] | % | 21.4 |

I am curious: what 229E Inhibition rate value has been reported for `CC(=O)O[C@@H]1C[C@H](O)[C@@]23CO[C@@H](O)[C@]1(C)[C@@H]2C[C@@H](O)[C@]1(C)[C@@H]3C(=O)[C@H](OC(C)=O)[C@@]2(C)[C@H](c3ccoc3)C[C@H]3O[C@]321` ?
23.4
